# test system: human PD-1 expressed on cells (CHO TREX human PD1 cell line, full-length human PD-1 sequence) (human, UniProt Q15116 21-288)
# Sequence (Q15116 21-288): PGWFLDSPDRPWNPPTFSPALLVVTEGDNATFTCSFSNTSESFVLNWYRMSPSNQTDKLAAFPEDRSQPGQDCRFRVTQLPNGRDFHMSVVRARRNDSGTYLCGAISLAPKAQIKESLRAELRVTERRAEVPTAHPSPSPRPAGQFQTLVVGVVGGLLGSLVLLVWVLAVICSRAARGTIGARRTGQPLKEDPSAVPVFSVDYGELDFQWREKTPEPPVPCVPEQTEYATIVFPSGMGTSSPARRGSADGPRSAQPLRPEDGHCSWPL
# run description: cell-based or functional assay
readout: EC50 (M), NFAT-Luciferase reporter gene assay
A number alone suffices; assume M.

Prompt line: Note EC50 (M), NFAT-Luciferase reporter gene assay for the binder shown: 1.77b-4GS-1.21a (other) EVQLVESGGGLVKPGGSLRLSCAASGFTFSDSSMTWMRQAPGKGLEWVSYISSGGGVKFYTDSVKGRFTISRDNAKNSLYLQMNSLRAEDTAVYYCAREAPLRLGESPHDAFDISGQGTMVTVSSGGGGSGGGGSGGGGSGGGGSEVQLVESGGGLVQPGRSLRLSCAASGFTFDDYAMHWVRQAPGKDLEWVSGISWNGGSMGYAASVKGRFTISRDNAKNSLYLQMNSLRAEDTALYYCVREKGPGLTGSTADYYGLDVWGQGTMVTVSS
Response line: 3.2e-09
